method summary: label from the status in PepcDB records;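 further: failed if final PepcDB status was selected cloned or expressed and not failed if soluble or beyond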
reported endpoint: protein production

monomer sequence	reported endpoint	endpoint value
CSACGETVMPGSRKLEYGGQTWHEHCFLCSGCEQPLGSRSFVPDKGAHYCVPCYENKFA	protein production	not failed
MKPLSARQQQVLQATVHHYVDTMEPVGSRTLVQRFGIPASSATVRSAMGALEKRGLLTQPHTSAGRIPSALGYRCYVDDLLPEPGVAVQHLERELTGLSLRWAALDDLLQQLARRLTDFTGLMSLITRPQQPRAQLEAIRLVQSGDRLLVMLVEDSGRASHLNLRLPPGASDELTAIERWTDQQLEDGSINWRSLPPQLQRSGDVLRSALDHPSMSPETPLVVHGLSRLVAEPEFHSTAELRPLLELIDDQPCAVVSATDQPGVWIGEEHPQKALQACSVVQAPYRCGQEGVGQVALVGPMRMAYATAHAAVQRVARHLDLLLN	protein production	failed
MSNAFEYLRTYVESTTETDAAVARAREDAAEFGLPAPDEMTGQLLTTLAATTNGNGSTGAIAITPAAGLVGLYILNGLADNTTLTCIDPESEHQRQAKALFREAGYSPSRVRFLLSRPLDVMSRLANDSYQLVFGQVSPMDLKALVDAAWPLLRRGGALVLADALLDGTIADQTRKDRDTQAARDADEYIRSIEGAHVARLPLGAGLTVVTKALEHHHHHH	protein production	not failed
MLLYVLIISNDKKLIEEARKMAEKANLELRTVKTEDELKKYLEEFRKESQNIKVLILVSNDEELDKAKELAQKMEIDVRTRKVTSPDEAKRWIKEFSEEGGSLEHHHHHH	protein production	not failed
AADGEGRGELSPKIKAGDLESKLIVPKNNGLKITGTFLDEISHDIPHQNWGEKEWDLDFQHMKRIGIDTVIMIRSGYRKFMTYPSPYLLKKGCYMPSVDLVDMYLRLAEKYNMKFYFGLYDSGRYWDTGDLSWEIEDNKYVIDEVWKMYGEKYKSFGGWYISGEISRATKGAIDAFRAMGKQCKDISNGLPTFISPWIDGKKAIMGTGKLTREDAVSVQQHEKEWNEIFDGIHEVVDACAFQDGHIDYDELDAFFTVNKKLADKYGMQCWTNAESFDRDMPIRFLPIKFDKLRMKLEAAKRAGYDKAITFEFSHFMSPQSAYLQAGHLYDRYREYFEIK	protein production	not failed
AKTWVLTNAEEGIDKGNWQINSDQLKVKDHAFSIEQKVLHGGKQEGSKILTIHSKDGLTITLSPTRGMNLLRIEGFGSRMGWDSPVKEVVNPAFINLESRNGLGWLEGFNEMMVRCGYEWTGHPVTADGQIYTLHGKAGNTPASLVEVEVADSAPYEIRIRGLVKESTFKKADLQTLTELRYVPGSNSFSLHDVLTNHADYPHDYQIIYHSNFGTPILEEGARFLAPISSISPFNDYAKSGLKTWQTYQGPTKDFDEMVFNIQPLADENHQTLAAVVNKAGDKGASIQFDTRQLPVLTLWKNTDTVKQGYVTGIEPGTSYAYPVTIERKQKRVKQLQPGASAQFDLTYTLLHDSAQVAAVEQKIAKIQGDNKVAENETPIAKE	protein production	not failed
MPSPVEADAKVTMRLRYTKTGAMRYLSHLEMIGLFTRAVGRARLPIRFSQGFHPHPKFSFATALSVGVESWAEYLDMELIPSLTPGEVRDRLNAALPEGMRIVEAVVIPPGTPSLSVLMDKVRYRIILLEEAARDLAARAEAFLARDSFPLRRAKKGRIQEYDLEHHHHHH	protein production	failed
MPIHSLSLAGFRSIRKLTLELDALNVVVGANGCGKSNLYKSIQLLHAAAEGGLSAALAAEGGAQKAMWAGGTRRGDKARVPKRMILSARLDDYDYELQLGYPEPSCSLFALDPLVKEESLWLAGHGRRPSTLLLERRNQAAFLCGVEGERNSYPASLRAEESLFGQLAEPHRYPELSQVRETLRNWRFYHEFAIWPGSPLRAPQVGIRSPVLAHDGANLAAAFQTIVEIGDHELLHSVLTDAFPDSRFLVDAQQGRFQMLMRRDGLLRPLEAAELSDGTLRFLCLAVALLSPRPPAFMALNEPENSLHPALLPALARLIAEASRHSQLWVTSHSPELAERIRRHRPLKTFQLSLRDGETVLQDDLEHHHHHH	protein production	failed
MSKQSVKKIISFSLTIIIAIVMLGLLKNLFSQSDDKALSEAIRNGAFLVDVRTPGEFASGSVAGAVNIPLDRIASRLNELKNKKTIIVFCRSGNRSSQAKSILERNGFSNVLDGGTWGHVASLKGDQ	protein production	failed
MGGKTKKHAMRLFDRIAEKYDLLNRILSFGMDTKWRKRVVELILEVNPEKVLDLATGTGDVARLLKRKAPHLEITGLDSSSKMLEIAEKRLKDGEFIVGDAHNLPFYDRSFDAITVAFGFRNFSDRRRVLRECRRVLKRKGRLVILELLPPNTKRFTGKIYSFYLKTWVPFVGGLFSGDFHAYRYLSTSVLNFLTPDQIVEMMKEEGFEVSFEPLFFSVAGIFIGDLIWLEHHHHHH	protein production	failed
MEIGVVGKPNVGKSTFFSAATLVDVEIANYPFTTIEANVGVTYAITDHPCKELGCSPNPQNYEYRNGLALIPVKMVDVAGLVPGAHEGRGLGNKFLDDLRMASALIHVVDATGKTDPEGQPTDYHDPVEDIEFLEREIDYWIYGILSKGWDKFAKRIKLQKIKLESAIAEHLSGIGVNENDVWEAMHKLNLPEDPTKWSQDDLLAFASEIRRVNKPMVIAANKADAASDEQIKRLVREEEKRGYIVIPTSAAAELTLRKAAKAGFIEYIPGASEFKVLRDMSEKQKRALMVIKEKVLDRFGSTGVQEVINRVVFDLLKLIPVYPVHDENKLTDQFGNVLPHVFLMKKGSTPRDLAFKVHTDLGKGFLYAINARTKRRVGEDYELQFNDIVKIVSVTR	protein production	not failed
MARIDHVGLMVKDIDASIAFYQNVIGMTLKGRMTHTNGVMKLAFLGFENRDETELELIEGYNDNLPQEGKVHHFAVSTDDIEAEFDRVKGAGIKLMEDEITVLPNGFRYFFLFGPEGEMVEFFQRT	protein production	failed

====

method summary: label from the status in PepcDB records

monomer sequence	protein production
TPVVFLGAGNLATNLAKALYRKGFRIMQVYSRTEESARTLANEVEAEYITDLKDVSNEARLYIISLKDAAFVELLPQITDGKQHALLVHTAGSIPMNIWEGHAERYGVFYPMQTFSKQREVDFREVPFFIEAKRPEDTELLKAVAGTLSDKVYEAD	failed
MPAAHPSAISFARQTKAIAMAAKIVPAPDYEDRVRASFARQQAMATIGAELTLVTPGIIEIEMPYSAALTQQHGFLHAGVISTALDSACGYAAFSLMPENSGVLTIEFKVNLLAPGRGERFLFRGSVTKPGRTIIVADGQAYAFAADGEAKLIATMTGTMMTVVGRDGIAG	failed

====

method summary: label from the status in PepcDB records

monomer sequence	protein production
TDVSSWIVYPSGKVYVAAVRLERVVLTCELCRPWAEVRWTKDGEEVVESPALLLQKEDTVRRLVLPAVQLEDSGEYLCEIDDESASFTVTVTEPPVRIIY	not failed
MKPNFSRDYQLKWLFYVYCVRSEVGEEEEKKKVTKKTRKRVRFDLNVQTYEPIVPSRYENACSDDEEGKGGRSKGSSAIDKKPEDLSSRSVYPSNYRYHNCVDSFEDEDDEMGYGESDLEDEDYYTDNENDYEDDADDEDEEEEEENEQDVAPLLNPVENLAQWKAVKARPVKVKRVMKENVEEDMDDQAKPLLKEIIVNTSLSNWLASPKSLHANGSSKRSPIVDITNMENR	failed
MLQYILAEHPFFVATGALYAAAAGFYAAAWRSTRALVGRAATALLCAALAFNAGLIVERWIEAGRAPFKSLFESLVFFAFTTGVVYLAFERLYRTRVFGALAALLTLALLGYALGKWDAEIVKLPPALQSAWFVPHVVVYFVGYAAVSLAALLAAVQLLAPRVPLLQRLTTLRAGTILTGKALDLEQMTYELIRFGFVLLTVGLLVGSVWAKSAWGDFWVWDPKENWSLVTWLVYGAYLHLRKVRGWRGDRAAWLVLLGFAVVMFTYLGMSMLPTAEESAHVYTG	failed
MANRSHHNAGHRAMNALRKSGQKHSSESQLGSSEIGTTRHVYDVCDCLDTLAKLPDDSVQLIICDPPYNIMLADWDDHMDYIGWAKRWLAEAERVLSPTGSIAIFGGLQYQGEAGSGDLISIISHMRQNSKMLLANLIIWNYPNGMSAQRFFANRHEEIAWFAKTKKYFFDLDAVREPYDEETKAAYMKDKRLNPESVEKGRNPTNVWRMSRLNGNSLERVGHPTQKPAAVIERLVRALSHPGSTVLDFFAGSGVTARVAIQEGRNSICTDAAPVFKEYYQKQLTFLQDDGLIDKARSYEIVEGAANFGAALQRGDVAS	not failed
MRGVSELEVGKSNLPAESELELGLGLSLGGGAWKERGRILTAKDFPSVGSKRSAESSSHQGASPPRSSQVVGWPPIGLHRMNSLVNNQAMKAARAEEGDGEKKVVKNDELKDVSMKVNPKVQGLGFVKVNMDGVGIGRKVDMRAHSSYENLAQTLEEMFFGMTGTTCREKVKPLRLLDGSSDFVLTYEDKEGDWMLVGDVPWRMFINSVKRLRIMGTSEASGLAPRRQEQKDRQRNNPV	failed
MNWQLKSKEAEVMNKLSLFLGCIVPNRYPGIEKATKLCLQRLEIDACDLPGASCCPAPGVFKSFDKATWLALASRNIVLSERMERDVLTVCNGCYGSLADANMELKKDPEMKACTNSCLKEIGMEFRGTSEIRHIIEFLYKEFGPEKLKEYITTPLDLKVALHYGCHLIKPSKDRNLGDTESPVFFDELVEATGAKSVDYTDKMMCCGAGGGVRSGYADESLEMLEHKLDCICKAGVDCIVNACPFCHLQFDRGQIAVNEKFGTDYSIPVLHYSQLLGLALGFSPDQLGIEQNAVQNIEFLAKIYEISAGLS	failed
MNHSFRTGITGRRFSAMRVPYGRSRRTHRNGGAGREGTTMTTTTTPTTTTPTSPPTVKAPTVKAPTAKTATAKTADNPVLRVAPASPAAAAAYFGASLAFHADVSDVATALAAGGDPGFVVLDSRSTASWDQGHVPGAVHLPTALIPEQAEQLLDRSVPVVTYCWGPGCNGATRAALALAELGFQVKEMLGGFEYWVREGFEYETWEGRDHRVADPLTAPVDADDCGC	failed
MEFQLWGAKIVIEPKPDLRYLYLEITNRCNLKCEMCFKQYWEDKEGDMDWDLFLKILDDAKEFPELKMIYFGGIGEPSVHPRFMDMVREVKRRGFRLGMSTNGVLLEDKILEEFVKLGVDVVYFSMDAIPTPSNIVTLGHITSKVVESRIKKLVELKKRYKTEKPTIGVEVVATKENYKQLPEMAIYLRNLGVDSMLISNLIPMTKEHSKAIVYDGSVDMTPIVNELHQIAEGGPFMRIAEFKLRTNRYCDFIENNVTVVRWDGEVFPCYRFLHTYPEVIFGREKKVIAHSFGNVKEKSLKDIWMSEEYVRFRFLVKASAYPSCIDCPLNTSCSFALDTTQDCWGTSPSCGDCLWSRGIVLCPIPFEYMGKFL	failed
IKVGKAKLLNQVLVNLPTSISQQTIAETDGDSAGSDSFPVGRTHHRWYLCHFGQSLIHVIQVVIGYFIMLAVMSYNTWIFLGVVLGSAVGYYLAYPLLSTA	not failed
MSRDLGRLLKIASNQMSTRFDIFAKKYDLTGTQMTIIDYLSRNKNKEVLQRDLESEFSIKSSTATVLLQRMEIKKLLYRKVSGKDSRQKCLKLTKKANKLETIILSYMDSDQSQMTSGLNKEEVVFLEKILKRMIESD	not failed
DKDNTDEPKETAKALGKLASESKKEILLESAYLIFDDNQLKGWQALINTGVEIKALTNSMASNDLTTNHSGYAGRRQDMLEHGIQLYELKPETELCEESTKDVSKCAPILPYGLHAKSAVFDDKIASIGSFNFNLRSTYLNTESILIIENQKIAEQLTQDIEHAMDEENSWHLKLQEGDVRWYSGDKSWESEPETGRWERFQSGFLQLLPIE	failed
KRRIRQLELQVRMLEADKERLERELSRLRSEMSRLRQPPAFAGSVIEVLDDDRAIVQNYNGPRFVVRIAPWIDKSKLRPGTRVALDQRTMAIIEILPASKDPAVLGFEVVERPN	not failed
MNTPSRTHLVIIPSYNPGPKVYETVQAARRYWNPVWVVVDGSTDGTWEGLLKLSAEDSGLVVLGMPANRGKGAAVLRGLLTSRRKGFTHALVMDSDGQHPADRIPEFMARSQEEPDAMILGVPVFDDSAPSLRVKGRRISNWWANLETLWCGIGDSLFGFGVYPIQALCVIMQDHQWMRRFDFDPEAAVRLCWAGIRPVNLPVPVYYPKPEEGGTSHFHYWRDNALLTWMHVRLMFGFLARLPILLARIVRRPEILEHHHHHH	failed
